testMethodNotes: Toxicity test of compounds on HOS-CD4-CCR5 cells (MTT)
Type: cell-based
assayConditions: human; HOS-CD4+-CCR5 cells (Table 7)
In this section we review reported CC50 at 3 days values for a set of compounds.
measuredParameter: CC50 at 3 days (µg/mL)

{"columns": ["compound", "unitTag", "valueModifier", "observedValue"],
 "data": [
  ["Cc1nnc(C(C)C)n1C1CCN(CC[C@H](NC(=O)C2CCCC2)c2cccs2)CC1 [Compound 17]", "µg/mL", "=", 439],
  ["Cc1nnc(C(C)C)n1C1CC2CCC(C1)N2CC[C@H](NC(=O)C1CCCC1)c1cccs1 (stereo partly shown) [Compound 18]", "µg/mL", "=", 507],
  ["Cc1nnc(C(C)C)n1C1CC2CCC(C1)N2CCC(NC(=O)C1CCC(F)(F)CC1)c1cccs1 (stereo not shown) [Compound 3]", "µg/mL", "=", 334],
  ["Cc1ccc([C@H](CCN2C3CCC2CC(n2c(C)nnc2C(C)C)C3)NC(=O)C2CCC(F)(F)CC2)s1 (stereo partly shown) [Compound 29]", "µg/mL", ">", 200],
  ["Cc1nnc(C(C)C)n1C1CC2CCC(C1)N2CC[C@H](NC(=O)C1CCCCC1)c1cccs1 (stereo partly shown) [Compound 16]", "µg/mL", "=", 343],
  ["Cc1nnc(C(C)C)n1C1CC2CCC(C1)N2CC[C@H](NC(=O)C1CCC(F)(F)CC1)c1ccsc1 (stereo partly shown) [Compound 22]", "µg/mL", ">", 800],
  ["Cc1nnc(C(C)C)n1C1CC2CCC(C1)N2CC[C@H](NC(=O)C1CCC(F)(F)CC1)c1cccs1 (stereo partly shown) [Compound 14]", "µg/mL", "=", 370]
]}

---

Test system: CCR5 protein
testMethodNotes: Thermal stability of protein test (CPM-assay)
Type: binding
assayConditions: thermal stability of CCR5 protein with compound, CPM dye
In this section we review reported Tm (° C.) values for a set of compounds.

{"columns": ["compound", "testedSystem", "Tm (° C.) / °C"],
 "data": [
  ["Cc1nnc(C(C)C)n1C1CCN(CC[C@H](NC(=O)C2CCCCC2)c2cccnc2)CC1", "CCR5 protein", 57.21],
  ["Cc1nnc(C(C)C)n1C1CC2CCC(C1)N2CC[C@H](NC(=O)C1CCCCC1)c1ccsc1 (stereo partly shown)", "CCR5 protein", 62.31],
  ["Cc1nnc(C(C)C)n1C1CCN(CC[C@H](NC(=O)C2CCC(F)(F)CC2)c2cccs2)CC1", "CCR5 protein", 65.32],
  ["Cc1nnc(C(C)C)n1C1CCN(CC[C@H](NC(=O)C2CCCCC2)c2ccsc2)CC1", "CCR5 protein", 63.90],
  ["Cc1nnc(C(C)C)n1C1CCN(CC[C@H](NC(=O)C2CCC(F)(F)CC2)c2cccnc2)CC1", "CCR5 protein", 57.31],
  ["Cc1nnc(C(C)C)n1C1CCN(CC[C@H](NC(=O)C2CCCC2)c2ccsc2)CC1", "CCR5 protein", 62.31],
  ["CC(=O)NC(CCN1CCC(n2c(C)nnc2C(C)C)CC1)c1cccs1 (stereo not shown)", "CCR5 protein", 65.23],
  ["CCC1CCC(C(=O)N[C@@H](CCN2C3CCC2CC(n2c(C)nnc2C(C)C)C3)c2cccs2)CC1 (stereo partly shown)", "CCR5 protein", 69.20],
  ["Cc1nnc(C(C)C)n1C1CCN(CC[C@H](NC(=O)C2CCCC2)c2cccs2)CC1", "CCR5 protein", 66.97],
  ["Cc1nnc(C(C)C)n1C1CC2CCC(C1)N2CC[C@H](NC(=O)C1CCCC1)c1cccnc1 (stereo partly shown)", "CCR5 protein", 63.21],
  ["Cc1nnc(C(C)C)n1[C@@H]1C[C@H]2CC[C@@H](C1)N2CC[C@H](NC(=O)C1CCC(F)(F)CC1)c1ccccc1 [Maraviroc, reference compound]", "CCR5 protein", 72.17],
  ["Cc1nnc(C(C)C)n1C1CC2CCC(C1)N2CC[C@H](NC(=O)C1CCC(F)(F)CC1)c1ccsc1 (stereo partly shown)", "CCR5 protein", 68.21],
  ["Cc1nnc(C(C)C)n1C1CC2CCC(C1)N2CC[C@H](NC(=O)C1CCCC1)c1ccsc1 (stereo partly shown)", "CCR5 protein", 71.02],
  ["CC(=O)NC(CCN1C2CCC1CC(n1c(C)nnc1C(C)C)C2)c1cccs1 (stereo not shown)", "CCR5 protein", 65.64],
  ["Cc1nnc(C(C)C)n1C1CCN(CC[C@H](NC(=O)C2CCCCC2)c2cccs2)CC1", "CCR5 protein", 64.30],
  ["Cc1nnc(C(C)C)n1C1CC2CCC(C1)N2CC[C@H](NC(=O)C1CCCCC1)c1cccnc1 (stereo partly shown)", "CCR5 protein", 60.61],
  ["Cc1nnc(C(C)C)n1C1CCN(CCC(NC(=O)C2CCC(F)(F)CC2)c2cccs2)CC1 (stereo not shown)", "CCR5 protein", 60.59],
  ["Cc1nnc(C(C)C)n1C1CCN(CC[C@H](NC(=O)C2CCCC2)c2cccnc2)CC1", "CCR5 protein", 61.32],
  ["Cc1nnc(C(C)C)n1C1CC2CCC(C1)N2CC[C@H](NC(=O)C1CCCCC1)c1cccs1 (stereo partly shown)", "CCR5 protein", 71.32],
  ["Cc1nnc(C(C)C)n1C1CCN(CC[C@H](NC(=O)C2CCC(F)(F)CC2)c2ccsc2)CC1", "CCR5 protein", 64.68],
  ["Cc1nnc(C(C)C)n1C1CC2CCC(C1)N2CC[C@H](NC(=O)C1CCC(F)(F)CC1)c1cccs1 (stereo partly shown)", "CCR5 protein", 68.10],
  ["Cc1nnc(C(C)C)n1C1CC2CCC(C1)N2CC[C@H](NC(=O)C1CCCC1)c1cccs1 (stereo partly shown)", "CCR5 protein", 71.73]
]}

---

testMethodNotes: in vivo
assayConditions: male, rat, po, 20 mg/kg

{"columns": ["compound", "Cmax / ng/mL"],
 "data": [
  ["Cc1nnc(C(C)C)n1C1CC2CCC(C1)N2CC[C@H](NC(=O)C1CCC(F)(F)CC1)c1ccsc1 (some centres unmarked)", 306],
  ["Cc1nnc(C(C)C)n1C1CC2CCC(C1)N2CC[C@H](NC(=O)C1CCC(F)(F)CC1)c1cccs1 (some centres unmarked)", 266],
  ["Cc1ccc([C@H](CCN2C3CCC2CC(n2c(C)nnc2C(C)C)C3)NC(=O)C2CCC(F)(F)CC2)s1 (some centres unmarked)", 580],
  ["Cc1nnc(C(C)C)n1C1CC2CCC(C1)N2CC[C@H](NC(=O)C1CCCCC1)c1cccs1 (some centres unmarked)", 631],
  ["Cc1nnc(C(C)C)n1C1CC2CCC(C1)N2CC[C@H](NC(=O)C1CCCC1)c1cccs1 (some centres unmarked)", 690]
]}

---

In this section we review reported pIC50 values for a set of molecules.
testedSystem: CCR5 (Homo sapiens (Human))
Sequence (P51681 whole entry): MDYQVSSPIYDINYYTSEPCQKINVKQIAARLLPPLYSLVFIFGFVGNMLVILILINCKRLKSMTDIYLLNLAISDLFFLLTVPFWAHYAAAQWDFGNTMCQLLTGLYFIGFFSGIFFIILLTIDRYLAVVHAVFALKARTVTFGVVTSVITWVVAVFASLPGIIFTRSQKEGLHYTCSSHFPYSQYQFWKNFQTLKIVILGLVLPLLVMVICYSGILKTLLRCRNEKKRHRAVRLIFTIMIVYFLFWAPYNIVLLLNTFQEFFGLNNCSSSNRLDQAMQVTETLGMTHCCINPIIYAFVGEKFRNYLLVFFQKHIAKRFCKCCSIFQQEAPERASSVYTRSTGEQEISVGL
testMethodNotes: Calcium flux inhibition experiment
Format: cell-based
assayConditions: HEK293/CCR5-Gα16 cell line, calcium flux; read-out: CCR5 IC50
pIC50: −log10 of the molar value.

{"columns": ["molecule", "pIC50"],
 "data": [
  ["CC(=O)Nc1ccc([C@H](CCN2C3CCC2CC(n2c(C)nnc2C(C)C)C3)NC(=O)C2CCCCC2)s1 (stereo partly drawn) [Compound 138]", 8.01],
  ["Cc1nnc(C(C)C)n1C1CC2CCC(C1)N2CC[C@H](NC(=O)C1CCCC1)c1ccsc1 (stereo partly drawn) [Compound 26]", 8.30],
  ["CC(=O)N[C@@H](CCN1C2CCC1CC(n1c(C)nc3c1CCN(C(=O)C(C)C)C3)C2)c1ccc(C#N)s1 (stereo partly drawn) [Compound 143]", 7.86],
  ["Cc1nnc(C(C)C)n1C1CCN(CC[C@H](NC(=O)C2CCC(F)(F)CC2)c2ccsc2)CC1 [Compound 21]", 7.92],
  ["Cc1nnc(C(C)C)n1C1CC2CCC(C1)N2CC[C@H](NC(=O)Cc1nnn[nH]1)c1ccc(F)s1 (stereo partly drawn) [Compound 163]", 7.88],
  ["CCC(=O)N[C@@H](CCN1C2CCC1CC(n1c(C)nc3c1CCN(C(C)=O)C3)C2)c1nccs1 (stereo partly drawn) [Compound 124]", 7.95],
  ["Cc1nnc(C(C)C)n1C1CC2CCC(C1)N2CC[C@H](NC(=O)C1CCCC1)c1ccc(Cl)s1 (stereo partly drawn) [Compound 114]", 8.03],
  ["Cc1nc2c(n1C1CC3CCC(C1)N3CC[C@H](NC(=O)C1CCC(F)(F)CC1)c1ccsc1)CCN(C(=O)C(C)C)C2 (stereo partly drawn) [Compound 43]", 8.08],
  ["Cc1nnc(C(C)C)n1C1CC2CCC(C1)N2CC[C@H](NC(=O)C1CCCC1)c1cccs1 (stereo partly drawn) [Compound 18]", 8.43],
  ["CCC(=O)N1CCc2c(nc(C)n2C2CC3CCC(C2)N3CC[C@H](NC(C)=O)c2nccs2)C1 (stereo partly drawn) [Compound 120]", 7.56],
  ["Cc1nnc(C(C)C)n1C1CC2CCC(C1)N2CC[C@H](NC(=O)Cn1cnnn1)c1cccs1 (stereo partly drawn) [Compound 172]", 8.03],
  ["Cc1ccc([C@H](CCN2C3CCC2CC(n2c(C)nnc2C(C)C)C3)NC(=O)C2CCCC2)s1 (stereo partly drawn) [Compound 31]", 8.01],
  ["Cc1nnc(C(C)C)n1C1CC2CCC(C1)N2CC[C@H](NC(=O)C1CCCCC1)c1ccsc1 (stereo partly drawn) [Compound 24]", 7.35],
  ["CCC(=O)N1CCc2c(nc(C)n2C2CC3CCC(C2)N3CC[C@H](NC(C)=O)c2ccc(F)s2)C1 (stereo partly drawn) [Compound 134]", 7.66],
  ["Cc1nnc(C(C)C)n1C1CC2CCC(C1)N2CC[C@H](NC(=O)C1CCN(S(C)(=O)=O)CC1)c1ccc(F)s1 (stereo partly drawn) [Compound 151]", 8.46]
]}
